Several reports have described IC50 for UniProtKB Q99683; a selection of those results is presented here.

Example entries begin here.
Smi	IC50
Cc1cc(F)c(C(=O)Nc2cccc(-c3cnnn3C(C)C)n2)cc1-n1cnc(C2CC2)c1	10 to 100 nM
COc1cc2c(cc1C(=O)Nc1cccc(-c3nnnn3C(C)C)n1)S(=O)(=O)N(C(C)(C)C)C2	> 1000 nM
CC(C)n1nnnc1-c1cccc(NC(=O)c2cc3sc(C4CC4)nc3cn2)n1	> 1000 nM
C[C@H](CO)n1nnnc1-c1cccc(NC(=O)c2cc3c(cn2)CCN(C(=O)C2CC2)C3)n1	1 to 10 nM
CCN(CC)C(=O)N1CCc2cnc(C(=O)Nc3cccc(-c4nnnn4C(C)C)n3)cc2C1	1 to 10 nM
CC(C)n1cnnc1-c1cccc(NC(=O)c2cc3sc(C4CCC4)nc3cc2F)n1	10 to 100 nM
O=C(c1ccc2c(c1)CN(c1cccc(-c3nncn3C3CC3)n1)C2=O)N1CCC(O)CC1	< 200 nM

Now let's try a different one.
Short answer please: IC50, UniProtKB Q99683, entry "CC(C)COC(=O)N1CCc2ccc(C(=O)Nc3cccc(-c4nncn4C(C)C)n3)cc2C1"
10 to 100 nM
